Origin of values: patent US20210206877A1

Target: BACE1 ECD (as used in the enzyme activity assay) (UniProt P56817 22-457, limits assumed)
Sequence (P56817 22-457 limits assumed): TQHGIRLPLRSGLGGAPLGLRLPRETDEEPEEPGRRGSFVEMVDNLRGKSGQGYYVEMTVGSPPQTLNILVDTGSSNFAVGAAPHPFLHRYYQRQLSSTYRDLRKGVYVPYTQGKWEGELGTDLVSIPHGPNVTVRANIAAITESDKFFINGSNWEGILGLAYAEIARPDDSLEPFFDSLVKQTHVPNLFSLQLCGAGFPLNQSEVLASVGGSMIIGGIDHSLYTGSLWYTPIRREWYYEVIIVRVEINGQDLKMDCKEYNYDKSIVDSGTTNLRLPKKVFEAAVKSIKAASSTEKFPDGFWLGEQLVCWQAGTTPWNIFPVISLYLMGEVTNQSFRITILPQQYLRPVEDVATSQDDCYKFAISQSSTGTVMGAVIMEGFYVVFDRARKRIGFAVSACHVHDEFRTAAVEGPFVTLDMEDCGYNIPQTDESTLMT
Test: cell-based or functional assay
MEASURED_PARAMETER: EC50, FRET short substrate assay (nM)
Give the number; nM is assumed, so skip it.

Please review the following examples before continuing.
BINDER: 5571 (antibody, V domains shown) VH: QVQLVQSGAEVKKPGSSVKVSCKASGGTFSSYAISWVRQAPGQGLEWMGNIIPIFGTANYAQKFQGRVTITADESTSTAYMELSSLRSEDTAVYYCARSGGTKYGMLDVWGQGTVVTVSS VL: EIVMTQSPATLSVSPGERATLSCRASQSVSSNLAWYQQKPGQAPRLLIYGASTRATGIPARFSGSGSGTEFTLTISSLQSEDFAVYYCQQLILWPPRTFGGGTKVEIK
EC50, FRET short substrate assay [nM]: 0.417

BINDER: 5875 (antibody, V domains shown) VH: EVQLLESGGGLVQPGGSLRLSCAASGFTFSTYAMGWVRQAPGKGLEWVSATSGSGGSTYYADSVKGRFTISRDNSKNTLYLQMNSLRAEDTAVYYCAKGGSQWLYAPGSWFDPWGQGTLVTVSS VL: EIVLTQSPATLSLSPGERATLSCRASQSVSSYLAWYQQKPGQAPRLLIYDASNRATGIPARFSGSGSGTDFTLTISSLEPEDFAVYYCVQRSNFPWTFGGGTKVEIK
EC50, FRET short substrate assay [nM]: 1.99

BINDER: 5887 (antibody, V domains shown) VH: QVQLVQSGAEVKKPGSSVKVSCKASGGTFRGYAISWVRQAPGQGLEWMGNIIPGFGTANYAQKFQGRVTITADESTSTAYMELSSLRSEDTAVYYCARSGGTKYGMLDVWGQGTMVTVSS VL: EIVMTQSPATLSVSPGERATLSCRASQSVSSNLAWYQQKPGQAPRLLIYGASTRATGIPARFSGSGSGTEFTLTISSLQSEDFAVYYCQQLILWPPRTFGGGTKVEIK
EC50, FRET short substrate assay [nM]: 0.482

BINDER: 5644 (antibody, V domains shown) VH: QLQLQESGPGLVKPSETLSLTCTVSGGSISSSSYYWGWIRQPPGKGLEWIGSIYYSGSTYYNPSLKSRVTISVDTSKNQFSLKLSSVTAADTAVYYCARVGHGISYFDLWGRGTLVTVSS VL: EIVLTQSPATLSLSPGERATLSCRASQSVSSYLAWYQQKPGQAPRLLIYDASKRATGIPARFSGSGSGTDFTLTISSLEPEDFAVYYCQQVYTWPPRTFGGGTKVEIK
EC50, FRET short substrate assay [nM]: 8.47

Continue with the binder presented below.
EC50, FRET short substrate assay for 5572 (antibody, V domains shown) VH: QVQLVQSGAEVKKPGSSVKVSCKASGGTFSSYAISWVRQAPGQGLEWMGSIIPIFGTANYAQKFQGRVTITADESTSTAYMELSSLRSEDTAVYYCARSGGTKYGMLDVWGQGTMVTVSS VL: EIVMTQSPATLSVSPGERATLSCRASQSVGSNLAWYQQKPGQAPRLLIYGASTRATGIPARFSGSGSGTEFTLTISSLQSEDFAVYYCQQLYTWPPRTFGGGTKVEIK is 15.9
